Item-by-item account of log10 Ki
Target: σ2 receptor (Rattus norvegicus)
Construct: The thawed rat liver membrane preparation; tissue Harlan-Winkelmann, Borchen, Germany (animal organs); host or cells: rat liver membrane homogenate
Sequence (Q5U3Y7 1-176): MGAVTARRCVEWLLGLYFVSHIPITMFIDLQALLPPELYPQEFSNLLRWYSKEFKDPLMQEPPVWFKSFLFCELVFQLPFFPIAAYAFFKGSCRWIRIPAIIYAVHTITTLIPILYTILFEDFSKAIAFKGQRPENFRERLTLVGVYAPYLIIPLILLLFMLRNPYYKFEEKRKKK
Assay: σ2 receptor binding assay, radioligand [3H]di-o-tolylguanidine, rat liver membrane preparation
Conditions: read-out: Ki (nM) σ2
EXPERIMENTAL_READOUT: log10 Ki (log10 of the value in nM)

COMPOUND: C1CCC(CNC2CC34CCCCC3(CCC4)C2)CC1 (centres unmarked)
RESULT_VALUE: 2.00
--
COMPOUND: COc1ccc(C)cc1NC(=O)OC1CC23CCCCC2(CC(NCCc2c[nH]c4ccccc24)C3)C1 (stereo not drawn) [8-syn-4k]
RESULT_VALUE: 3.15
--
COMPOUND: COc1ccc(C)cc1NC(=O)OC1CC23CCCCC2(CC(NCC(C)C)C3)C1 (stereo not drawn) [8-anti-4u]
RESULT_VALUE: 2.93
--
COMPOUND: COc1ccc(C)cc1NC(=O)OC1CC23CCCCC2(CC(NCc2ccc(C)cc2C)C3)C1 (stereo not drawn) [8-anti-4e]
RESULT_VALUE: 3.04
--
COMPOUND: COc1ccc(C)cc1NC(=O)OC1CC23CCCCC2(CC(NCc2ccc([N+](=O)[O-])cc2)C3)C1 (stereo not drawn) [8-anti-4g]
RESULT_VALUE: 3.29
--
COMPOUND: OC1CC23CCCCC2(C1)CC(NCc1ccccc1)C3 (mixture of isomers) [11-anti-13]
RESULT_VALUE: 3.03
--
COMPOUND: COc1ccc(C)cc1NC(=O)OC1CC23CCCCC2(CC(Nc2ccc(N)cc2)C3)C1 (stereo not drawn) [8-anti-4o]
RESULT_VALUE: 4.08

----------
Molecular target: σ1 receptor (Cavia porcellus)
Construct: thawed membrane preparation of guinea pig brain; tissue Harlan-Winkelmann, Borchen, Germany (animal organs); host or cells: guinea pig brain membrane homogenate
Sequence (Q60492 whole entry): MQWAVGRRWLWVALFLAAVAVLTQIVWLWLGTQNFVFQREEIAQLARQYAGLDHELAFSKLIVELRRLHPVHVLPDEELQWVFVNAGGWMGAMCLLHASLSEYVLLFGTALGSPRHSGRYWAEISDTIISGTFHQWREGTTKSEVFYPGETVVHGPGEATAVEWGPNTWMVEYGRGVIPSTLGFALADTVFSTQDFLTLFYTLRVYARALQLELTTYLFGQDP
Experiment: σ1 receptor binding assay, radioligand [3H]-(+)-pentazocine, guinea pig brain membrane preparation
Conditions: test compound concentration of 1 µM
EXPERIMENTAL_READOUT: inhibition at 1 µM (%)

MOLECULE: O=C(Nc1ccccc1)NC1CC23CCCCC2(CCC3)C1 (centres unmarked) [23a]
EXPERIMENTAL_READOUT: inhibition at 1 µM
RESULT_VALUE: 0
//
MOLECULE: COc1ccc(C)cc1NC(=O)OC1CC23CCCCC2(CC(Nc2ccc(N)cc2)C3)C1 (stereo not drawn) [8-anti-4o]
EXPERIMENTAL_READOUT: inhibition at 1 µM
RESULT_VALUE: 16
//
MOLECULE: COc1ccc(NC2CC34CCCCC3(C2)CC(OC(=O)Nc2cc(C)ccc2OC)C4)cc1Cl (stereo not drawn) [8-anti-4n]
EXPERIMENTAL_READOUT: inhibition at 1 µM
RESULT_VALUE: 0
//
MOLECULE: O=C(NC1CCCCC1)NC1CC23CCCCC2(CCC3)C1 (centres unmarked) [23b]
EXPERIMENTAL_READOUT: inhibition at 1 µM
RESULT_VALUE: 0
//
MOLECULE: COc1ccc(C)cc1NC(=O)OC1CC23CCCCC2(CC(NCc2ccc(C)cc2C)C3)C1 (stereo not drawn) [8-anti-4e]
EXPERIMENTAL_READOUT: inhibition at 1 µM
RESULT_VALUE: 0
//
MOLECULE: COc1ccc(C)cc1NC(=O)OC1CC23CCCCC2(CC(NCc2ccc(Cl)c(Cl)c2)C3)C1 (stereo not drawn) [8-anti-4d]
EXPERIMENTAL_READOUT: inhibition at 1 µM
RESULT_VALUE: 0
//
MOLECULE: O=C(Nc1ccc(F)c(F)c1)NC1CC23CCCCC2(CC(O)C3)C1 (mixture of isomers) [8-syn-26]
EXPERIMENTAL_READOUT: inhibition at 1 µM
RESULT_VALUE: 10
//
MOLECULE: COc1ccc(C)cc1NC(=O)N(Cc1ccccc1)C1CC23CCCCC2(CC(O)C3)C1 (stereo not drawn) [anti,syn-22]
EXPERIMENTAL_READOUT: inhibition at 1 µM
RESULT_VALUE: 0
